Readings of growth inhibition for the listed compounds
METHOD: NCI Yeast Anticancer Drug Screen. Data for the sgs1 strain (AID 173);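 note: 0% = growth of vehicle-only control cultures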
SETTINGS: S. cerevisiae sgs1 mutant, at 100.0 µM, active compounds read high
About 79,000 compounds went through this panel and 15% of them were active in at least one assay; those are over-represented in the sample as a whole.

COMPOUND	growth inhibition, %
O/N=C\c1c(O)ccc2ccccc12	80
COc1ccc(C(NCCNC(c2ccc(OC)c(OC)c2)c2cc3c(cc2O)OCO3)c2cc3c(cc2O)OCO3)cc1OC (stereo not drawn)	99
c1ccc(CCN2CCc3ccccc3C2)cc1	17
Cc1cc(C(C)(C)CC(C)(C)C)ccc1O	99
O=C(O)CNC(=S)Nc1ccccc1	91
NC1CCCCC1N.Nc1c(N=Nc2ccc(-c3ccc(N=Nc4cc(S(=O)(=O)[O-])c5ccccc5c4N)cc3)cc2)cc(S(=O)(=O)[O-])c2ccccc12.[OH3+].[OH3+].[Pt+4]	80
O=C(CSC(=S)N1CCCCC1)Nc1nc2c(s1)CCCC2	92
COc1ccc(NC(=O)CC2SC(=Nc3ccccc3C)NC2=O)c([N+](=O)[O-])c1 (stereo not drawn)	99
COc1nc2c(c(=O)n1C)N=C(c1ccccc1)[C@H](C(CC(=O)c1ccccc1)c1ccccc1)C(c1ccccc1)N2 (stereo partly drawn)	71
O=[N+]([O-])c1cccc2nc3ccccc3c(NCCC[N+]3([O-])CCCCC3)c12	93
CN(C)c1ccc2c(SCC(=O)OCC(=O)[C@@]3(O)CC[C@H]4[C@@H]5CCC6=CC(=O)C=C[C@]6(C)[C@H]5C(=O)C[C@@]43C)c3ccc(N(C)C)cc3nc2c1	90
COc1oc(C(=O)NC2CCCCC2)c(-c2ccc(Cl)cc2)c1S(=O)(=O)c1ccccc1	84
CCc1c(Cl)c(C)cc(O)c1Cl	91
Cc1c2cccc(Sc3ccccc3)c2c2c3c(cccc13)[S+](c1ccccc1)C2 (stereo not drawn)	87
O=C(NNc1ccccc1)C(O)C(O)C(O)C(O)C(O)CO (stereo not drawn)	94
CS(=O)(=O)SCc1ccc([N+](=O)[O-])cc1	97
Cc1cccc[n+]1C1CCc2c(ccc3ccccc23)C1=O (stereo not drawn)	69
CC1=CC(=C(c2ccc(N)cc2)c2ccc(N)cc2)C=CC1=N	77
C(=Nc1ccc(-c2cc(-c3ccccc3)nc3ccc4ccccc4c23)cc1)c1ccccc1	64
Oc1ccc2c(c1)C(O)CCCC2 (stereo not drawn)	93
CCN(CC)CCNc1ccc2ncn3c4cc(OC)c(OC)c(=O)c4c(O)c1c23	5
Cc1csc(=S)n1OC(=O)NC1CCCCC1	99
COc1cc(/C=N/Nc2nnc3c4ccccc4c4ncccc4c3n2)cc(OC)c1OC	10
CC(=O)ON=C1C=CC(=C(C#N)c2ccc(Cl)cc2)C=C1	95
CN(C)CCNC(=O)c1cccc2c1Oc1c(cccc1[N+](=O)[O-])O2	48
C[C@@](O)(/C=C/[C@H]1CC=CC(=O)O1)[C@@H](C[C@@H](O)\C=C/C=C\C=C\CO)OP(=O)(O)O	90
CC1=NOC(=O)/C1=C/c1ccc2c(c1)OCO2	23
O=C(/C=C/c1cc(Cl)cc(Cl)c1O)c1cccc(O)c1	98
O=C1N=C2SC=C(NC(=S)Nc3ccccc3)N2NC12c1ccccc1-c1ccccc12	90
CC(=O)OCC1OC2OC(=O)NC2C(OC(C)=O)C1OC(C)=O (stereo not drawn)	0
Cc1ccc(N=Nc2ccc(O)c(=O)cc2)cc1	93
O=c1[nH]c2ccc(Cl)cc2o1	-22
CCN(CC)CCNc1ccc([N+](=O)[O-])c2nc3ccccc3c(N)c12	13
CN(C)c1ccc(C2CC(C)(O)Oc3cc4c(cc32)OCO4)cc1 (stereo not drawn)	87
CCCCCCC(O)CNCc1ccnc2ccc(OC)cc12 (stereo not drawn)	56
COc1cc(/C=C2\CCC/C(=C\c3ccc(O)c(OC)c3)C2=O)ccc1O	-6
O=C(O)c1cc2ccc(Cl)cc2c(O)c1C1=CCCCC1	88
COc1cc(C2c3cc4c(cc3OC(OC(C)=O)C2C)OCO4)cc(OC)c1OC (stereo not drawn)	79
CCOC(=O)c1cc([N+](=O)[O-])c(Sc2ncnc3nc[nH]c23)c([N+](=O)[O-])c1	87
S=c1sc2c(s1)SCCS2	3
CCOc1ccccc1N=Cc1c2ccccc2cc2ccccc12	96
CN(C)[C@@H]1C(=O)C(C(N)=O)=C(O)[C@@]2(O)C(=O)C3=C(O)c4c(O)cccc4C[C@H]3C[C@@H]12	99
Cc1cc(N(CCOS(C)(=O)=O)CCOS(C)(=O)=O)ccc1C=Nc1ccc(-c2csc(-c3ccccc3)n2)c(Cl)c1	92
